system: PHA stimulated human donor peripheral blood mononuclear cells (PMNC); experiment: Assay B: Suppression of Human Mitogen Stimulation; assay type: cell-based; settings: inhibition of PHA stimulated proliferation of human PMNC, 96 hrs, 3H-thymidine
OBSERVATION TYPE: pIC50
In simple prose, pIC50 is minus the logarithm base ten of a concentration in moles per litre.

input: If you can, please state the reported pIC50 value of COC(=O)c1cc(OC)c(OC)cc1CCN(C)CCCC(C#N)(c1ccc(OC)c(OC)c1)C(C)C (stereo not shown) .
output: 5.28

----------
Test system: PHA stimulated human donor peripheral blood mononuclear cells (PMNC)
Test: Assay B: Suppression of Human Mitogen Stimulation
Type: cell-based
Settings: Homo sapiens, PBMC, inhibition of PHA stimulated proliferation of human PMNC, 96 hrs, 3H-thymidine
Protocol: Assay B: Suppression of Human Mitogen Stimulation Assay Normal human donor peripheral blood mononuclear cells (PMNC) were isolated by density centrifugation using Ficoll-Paque(Pharacia LKB, Uppsala Sweden, 350 RCF 45 minutes). […] Inhibition of PHA stimulated proliferation was measured by reduced incorporation of ^3H-thymidine (0.5 μCi/well, added during the last 24 hours of the assay). […]
OBSERVATION TYPE: IC50 (µM)
Report as a plain number; the unit µM is understood.

input: If you can, please state the reported IC50 value of COC(=O)c1cc(OC)c(OC)cc1CCN(C)CCCC(C#N)(c1ccc(OC)c(OC)c1)C(C)C (stereo not drawn) [Example 2] .
output: 5.4

Proceeding to the next molecule to report its IC50.
input: If you can, please state the reported IC50 value of COc1ccc(C(C#N)(CCCN(C)CCc2cc(OC)c(OC)cc2C(=O)NC(C)(C)C)C(C)C)cc1OC (stereo not drawn) [Example 4] .
output: 9.9

----------
test system: ConA-stimulated spleen cells from female Balb/c mice; experiment: Assay A: Suppression of Mitogen-Stimulated Proliferation (Murine); format: cell-based, mouse; conditions: inhibition of ConA-stimulated proliferation of murine spleen cells, 5 days, MTT
OBSERVATION TYPE: pIC50
In simple prose, pIC50 is minus the logarithm base ten of a concentration in moles per litre.

input: If you can, please state the reported pIC50 value of COC(=O)c1cc(OC)c(OC)cc1CCN(C)CCCC(C#N)(c1ccc(OC)c(OC)c1)C(C)C (stereo not shown) [Example 3] .
output: 5.06
